- ASSAYED_TARGET: UniProt P30518
- MEASUREMENT_DESCRIPTION: Determination of V2 receptor agonist activity in vitro (cellular activation)
- COND: concentration of compound necessary to cause a half-maximal cellular activation
PROPERTY_LABEL: pEC50
One number for each entry, as −log10 of the molar value.

>  <SMILES>
Cn1c(CNC(=O)Nc2c(F)cccc2F)ccc(C(=O)N2CCCCc3ccccc32)c1=O

>  <pEC50>
6.00

$$$$
>  <SMILES>
Cc1cc(C(=O)N2CCCCc3ccccc32)cc(C)c1CNC(=O)Nc1c(F)cccc1F

>  <pEC50>
7.77

$$$$
>  <SMILES>
Nc1cc(C(=O)N2CCCCc3ccccc32)ccc1CNC(=O)Nc1c(F)cccc1F

>  <pEC50>
7.30

$$$$

Consider the additional compound presented here.
Query: If you can, please state the reported pEC50 value of O=C(NCc1ccc(C(=O)N2CCCCc3ccccc32)c(Cl)n1)Nc1c(F)cccc1F .
Reply: 6.74

###

- ASSAYED_TARGET: UniProt:P30518
- MEASUREMENT_DESCRIPTION: Determination of V2 receptor agonist activity in vitro (cellular activation)
- COND: concentration of compound necessary to cause a half-maximal cellular activation
Simple rule here: EC50 less than 40 nM is T, otherwise F.

>  <COMPOUND>
O=C(NCc1ccc(C(=O)N2CCCCc3ccccc32)c(F)c1)Nc1c(F)cccc1F

>  <ASSAYED_TARGET>
UniProt:P30518

>  <ASSIGNED_LABEL>
F

$$$$
>  <COMPOUND>
Cc1cc(C(=O)N2CCCN(CCO)c3ccccc32)ccc1CNC(=O)Nc1c(F)cccc1F

>  <ASSAYED_TARGET>
UniProt:P30518

>  <ASSIGNED_LABEL>
T

$$$$
>  <COMPOUND>
Cc1cc(C(=O)N2CCCNc3ccccc32)ccc1CNC(=O)Nc1c(F)cccc1F

>  <ASSAYED_TARGET>
UniProt:P30518

>  <ASSIGNED_LABEL>
F

$$$$
>  <COMPOUND>
Cc1cc(C(=O)N2CCCCc3cccnc32)ccc1CNC(=O)Nc1c(F)cccc1F

>  <ASSAYED_TARGET>
UniProt:P30518

>  <ASSIGNED_LABEL>
F

$$$$
>  <COMPOUND>
Cc1cc(C(=O)N2CCCCc3sccc32)ccc1CNC(=O)Nc1c(F)cccc1F

>  <ASSAYED_TARGET>
UniProt:P30518

>  <ASSIGNED_LABEL>
T

$$$$

Query: Is 40 nM strictly greater than the compound's reported EC50? compound: CN1CCCN(C(=O)c2ccc(CNC(=O)Nc3c(F)cccc3F)c(Cl)c2)c2ccccc21
Reply: T

Query: Is 40 nM strictly greater than the compound's reported EC50? compound: CN(C)c1cc(C(=O)N2CCCCc3ccccc32)ccc1CNC(=O)Nc1c(F)cccc1F
Reply: T

Query: Is 40 nM strictly greater than the compound's reported EC50? compound: Cc1cc(C(=O)N2CCC[S+]([O-])c3ccccc32)ccc1CNC(=O)Nc1c(F)cccc1F (stereo not drawn)
Reply: F

Query: Is 40 nM strictly greater than the compound's reported EC50? compound: Cc1cc(C(=O)N2CCCCc3ccccc32)ccc1CNC(=O)NS(=O)(=O)c1ccccc1
Reply: F

Query: Is 40 nM strictly greater than the compound's reported EC50? compound: N#C/N=C(\NCc1ccc(C(=O)N2CCCCc3ccccc32)cc1)Nc1c(F)cccc1F
Reply: F

Query: Is 40 nM strictly greater than the compound's reported EC50? compound: O=C(c1ccc(CNS(=O)(=O)Cc2ccccc2[N+](=O)[O-])c([N+](=O)[O-])c1)N1CCCCc2ccccc21
Reply: T

Query: Is 40 nM strictly greater than the compound's reported EC50? compound: Cc1cc(CNC(=O)Nc2c(F)cccc2F)ccc1C(=O)N1CCCCc2ccccc21
Reply: T

###

Could you please report measured EC50 for the items listed next?
- ASSAYED_TARGET: V2 receptor (Homo sapiens)
- Sequence (P30518 whole entry): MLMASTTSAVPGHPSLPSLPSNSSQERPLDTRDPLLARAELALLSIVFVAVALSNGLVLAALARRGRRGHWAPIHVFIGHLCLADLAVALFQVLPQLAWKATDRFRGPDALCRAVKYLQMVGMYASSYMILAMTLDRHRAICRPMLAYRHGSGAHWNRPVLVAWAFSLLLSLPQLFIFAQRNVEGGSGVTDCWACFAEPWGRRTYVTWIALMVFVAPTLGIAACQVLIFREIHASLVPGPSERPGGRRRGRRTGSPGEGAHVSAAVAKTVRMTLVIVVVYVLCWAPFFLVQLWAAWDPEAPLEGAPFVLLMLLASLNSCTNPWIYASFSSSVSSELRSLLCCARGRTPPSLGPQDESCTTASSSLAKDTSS
- MEASUREMENT_DESCRIPTION: Determination of V2 receptor agonist activity in vitro (cellular activation)
- COND: concentration of compound necessary to cause a half-maximal cellular activation
Answers are plain numbers, in nM.

>  <SMILES>
CCN1CCCN(C(=O)c2ccc(CNC(=O)Nc3c(F)cccc3F)c(C)c2)c2ccccc21

>  <ASSAY_RESULT>
40

$$$$
>  <SMILES>
Cc1cc(CNC(=O)Nc2c(F)cccc2F)ccc1C(=O)N1CCCN(C)c2ccccc21

>  <ASSAY_RESULT>
40

$$$$

Consider the additional compound presented here.
Query: If you can, please state the reported EC50 value of O=C(NCc1ccc(C(=O)N2CCCCc3ccccc32)cc1)Nc1c(F)cccc1F .
Reply: 39
